- Test system: MS2 coat protein
- experimental_details: apparent KD of MS2 coat protein; higher = weaker reporter binding
- condition_summary: Eterna round: R107; input ligand: arginine 13.2 mM
# apparent KD of MS2 coat protein annotations
Please give a number only; it is taken to be in nM.

Please review the entries below; each comes with its answer.
biopolymer_sequence: CUCUGAGUGAGUAAUCACUCAGAGGCGGAUACCAGCGAGGUCCAUCGCCCUUGGCAGCCGAACAUGAGGAUCACCCAUGUCGGUA [#1 Same State - Theophylline A Attempt #24 (HarryS)]
test_system: MS2 coat protein
apparent KD of MS2 coat protein (nM): 8.82
--
biopolymer_sequence: AAUGGCCGUACCGGAAGGGUGAUCCUCAAACGAGGACCGGUACGGCCGCCACUCGAUAACAUGAGGAUCACCCAUGUAAUACAUA [whbob_X-Trypto_V2.0]
test_system: MS2 coat protein
apparent KD of MS2 coat protein (nM): 96.4
--
biopolymer_sequence: ACGCUGAUUGAUUACAAUCAGCGAAAAGAUACCAGUGGGUAAUCCCACCCUUGGCAGCUUAAACUUGAGGAUCACCCAGGUGGUA [TheoAS 17 #MS2Right #BothOrNeither #AlternativeMS2]
test_system: MS2 coat protein
apparent KD of MS2 coat protein (nM): 88.2
--
biopolymer_sequence: UAUAUAUAUAUGGAUACCAGCAGAGAAAACGUUUAUCCUAACAUGAGGAUCACCCAUGUAUGCCCUUGGCAGCUGUGUAUAUAUA [8.H]
test_system: MS2 coat protein
apparent KD of MS2 coat protein (nM): 16.7
--
biopolymer_sequence: CGAUAGGGUCAAUACCUAAUCAUAUCUGAAGGAGCGUGGAUAUACACAGGUAGGUCGCAGAAUCACAUGAGGAUCACCCAUGUCC [Same State Arginine A GF13]
test_system: MS2 coat protein
apparent KD of MS2 coat protein (nM): 60.2

input: Request: apparent KD of MS2 coat protein, test system MS2 coat protein, entry UGUUUGGUGCGCGAGUGUUGGAUGAUUGAUACCAGUGAAGAAGAGCGCCCUUGGCAGCGAAUCCUAACAUGAGGAUCACCCAUGU [5.V]
output: 39.3

input: Lab request: please report apparent KD of MS2 coat protein under test system MS2 coat protein for UCCUCCUCCGCAAGGAGGAGGAGUUGCGAUACCAGCACGGAAACGUGCCCUUGGCAGCGCACAUGAGGAUCACCCAUGUCAUGUU [#1 Exclusion - Theophylline A Attempt #9 (HarryS)]
output: 18.7

input: API: value(readout=apparent KD of MS2 coat protein, system=MS2 coat protein) for record GGAGUAGAUGCGGCCGCCACUUUCUCAAGACACUACAUGAGGAUCACCCAUGUCCAUUCUACACUAAGGACCGGGCAUCCCAUGG [Alaa]
output: 36.8

input: Lab note: need apparent KD of MS2 coat protein for CGGACAUGAGGAUCACCCAUGUACACUGAAGGAGCGUCGAGAACGACAGGUAGGUCGCAGGUUGAGGAUGGUGAUGCUCAGGUAG [Exclusion Arginine A GF 3] on MS2 coat protein, anyone have it?
output: 37.1

input: Kindly state the measured apparent KD of MS2 coat protein obtained for AGCACUGUGACGGCCGCCACUACAUAUAGGGUGGUCAGGCCCAUAAUACAUGAGGAUCACCCAUGUAGGACCGGGUCUCAGUGCA [Omei Trp Exc B A v12] with MS2 coat protein.
output: 11.7

input: What apparent KD of MS2 coat protein appears in the records for this sequence with MS2 coat protein? GGGUAAGAUCCGGAUACCAGCGAACAUGAGGAUCACCCAUGUGACCUAAGAUAGGCUAAACGCCCUUGGCAGCCGAAAUAGCGUU [Same State Theophylline B GF 5]
output: 24.9

input: Could you share what apparent KD of MS2 coat protein was measured for ACGACGCAUAGUGAUACCAGUAGAACAUGAGGAUCACCCAUGUCUGUGACGCACCACCUCUGCCCUUGGCAGCACUAUGCGUCAG [SSTheo B #8] , tested on MS2 coat protein?
output: 22.3

input: Return apparent KD of MS2 coat protein measured with MS2 coat protein given this sequence: CGCAACCCUAAGGGAUUGUGGUUAUUAGAUACCAGUAUGAUGCAAUACCCUUGGCAGCUAAUACAUGAGGAUCACCCAUGUUGCG [Th A Ex t2]
output: 13.6

input: Lab request: please report apparent KD of MS2 coat protein under test system MS2 coat protein for AGGCAGUAGGUGAUCCACUGCCAAGGUGAUACCAGCAUCGAAAGAUGCCCUUGGCAGCACCAACAUGAGGAUCACCCAUGUAAUA [(MT)''-(M)'-(T')-(Theo)-(Ms2)_Design1/22_9]
output: 36.9

input: Form field: apparent KD of MS2 coat protein recorded for AACCACAUGAGGAUCACCCAUGUGACCGCUCGAGGACCGGUACGGCCGCCACUCGUGGAGGGACUUAUGCGUUAUCCGGGUAAAU [theeternabot_sameState_MS2_Trp_A_29] with MS2 coat protein (enter value)
output: 16.9

input: Give MS2 coat protein apparent KD of MS2 coat protein for ACAUGAGGCUCACCCAUGUGUAGUGGGUGGCGAGGACCGGUACGGCCGCCACUCGGCAACAUGAGGAUCACCCAUGUAAGGCCCU [RNA Blob]
output: 39.6

input: Hi! What's the reported apparent KD of MS2 coat protein for ACAUGAGGAUCACCCAUGUACAUAAGGGAAGGAGCGCGGUGAAACGCAGGUAGGUCGCCCAUAAUAUCUAACAUUAAAUUCAUGU [LeftA3] on MS2 coat protein?
output: 16.8

input: Which measured apparent KD of MS2 coat protein belongs to AACAUGAGGAUCACCCAUGUCUGAACUGAAGGAGCGCUAAACAAGGCAGGUAGGUCGCGGAAUUUUGUGUGCAUAUGCAUAUGGG [9.J] , tested on MS2 coat protein?
output: 22.8

input: Param readout= apparent KD of MS2 coat protein; system= MS2 coat protein; entry= AUAUGGCGAGAUGAUACCAGACACAUGAGGAUCACCCAUGUUGAUGGUAAGUCUGCAUAUGUCCCUUGGCAGCAUAGCGACAUAU [X-TheoB-ms2@23] ; returns value.
output: 8.63

input: API: value(readout=apparent KD of MS2 coat protein, system=MS2 coat protein) for record CGCCACAUGAGGAUCACCCAUGUAAUGGCGCGAGGACCGGUACGGCCGCCACUCGCCUGGCAGUGAGCGCAUGCGGCCUGGGUAU [Exclusion Tryp A GF9]
output: 12.2
